- METHOD DESCRIPTION: protein stability index of a GFP-peptide fusion (yeast GPS) (PSI 1-4); higher = more stable; sorted into four equal gates, so the index is relative within each strain
- SETUP CONDITIONS: pdr5∆
ENDPOINT NAME: protein stability index
Give bare numbers.

// below: answered sequences
TDRESYPRLQDPSRELN [YCS4]    3.19
TDKPFSSTQDVILRKIS [CSI1]    3.31
NYEIVFDTVSNKLFTEP [YMR129W/POM152]    3.02
RAFLIEEQKIVKKVVKE [RPL34A]    3.02
DDLKQKKEELVEIAYHK [RPO31]    3.13

Hi there! I need protein stability index for each item below, if you can.
1. DGMDAAHIEKQSLDTIG [RPO21]
2. DDDDDDDDEVDYSEIQR [DSN1]

**Result**
3.29
3.49

###

- METHOD DESCRIPTION: protein stability index of a GFP-peptide fusion (yeast GPS) (PSI 1-4); higher = more stable; sorted into four equal gates, so the index is relative within each strain
- SETUP CONDITIONS: san1∆
ENDPOINT NAME: protein stability index

// below: answered sequences
YSKAKYPDLQPFVLAEN [CDC53]    2.13
MHRKSLRRASATVPSAP [YAR002W/NUP60]    2.39
VTLRKSLYTNTSRKALE [RPL3]    1.78
FEDATREQHIDTICQSI [SNF5]    3.26

Hi there! I need protein stability index for each item below, if you can.
1. GGDWERRNRYKTYYGIH [RPN7]
2. AHRNGIKKPKTYKYPSL [RPL29]
3. DWESDLHIHLNQILQTE [YDL116W/NUP84]
4. FVSRPDRTMLAPMDFAI [FAS1]
5. DLEWQELTSFSSQPLEP [DSN1]
6. NTNLMNGVNVQIDQLNR [GRR1]

**Result**
[1.29, 3.19, 2.77, 2.63, 2.98, 2.88]

###

Would you kindly list protein stability index for each of these sequences?
- METHOD DESCRIPTION: protein stability index of a GFP-peptide fusion (yeast GPS) (PSI 1-4); higher = more stable; sorted into four equal gates, so the index is relative within each strain
- SETUP CONDITIONS: doa10∆
Give bare numbers.

TAFNKTRGPFHFRAPSR [RPL16B]    2.95
GGDTCSSDGALCMDSSY [POP1]    2.24
MQPFDSGHDDLVHDVVY [YGL100W/SEH1]    3.23
LSLTAFTKNEEKLLKEL [ITC1]    2.24
PKNYSLHGLRSFYDAIF [YJL039C/NUP192]    2.53

Hi there! I need protein stability index for each item below, if you can.
1. LKLEYYNLLVKISLHKR [RPN5]
2. GTPKTDSFIFDGTAKEV [MED4]
3. RNSPFWWTNSHHDGKLW [PRP8]
4. LWDVATGETYQRFVGHK [ASC1]
5. KTNIIEKAMDYAISIEN [RPN12]
6. YQISAYQTRARQKARTD [RPR2]
7. GVEEVEGEYELTEAVED [RPL5]
8. LGVTYSSPTLATGFGAH [PRE4]

**Result**
[1.38, 2.32, 2.55, 2.98, 3.13, 2.19, 3.36, 2.41]

Hi there! I need protein stability index for each item below, if you can.
1. ITRFGLSKMRDSVLQLA [RPO31]
2. IDRPKHELSRAELEELE [SMD2]
3. IAKPNTANAKHTSSNSR [SMB1]
4. NTNLMNGVNVQIDQLNR [GRR1]

**Result**
1: 3.32; 2: 3.27; 3: 2.93; 4: 2.85

Hi there! I need protein stability index for each item below, if you can.
1. MLRTVTSKTVSNQFKRS [COR1]
2. DSILNYAKSEFDNVASV [ECM29]

**Result**
[3.11, 3.22]

Hi there! I need protein stability index for each item below, if you can.
1. KILPTDIQLKNLFPLKP [SRP68]
2. IKEKVQFNATINPESRE [ITC1]
3. RVVMMKYDRKVPSPTGE [RPO21]
4. IKELLNITKNLKTFNGS [POP4]
5. FTIRGFKQKLNELLKCK [MTW1]
6. NVMLEKIKDNKEKIKNN [RPT5]
7. DDDTFSDREMAALIASK [RPN2]
8. PNPNNMKTVQSPMGAQP [GAL11]

**Result**
1. 2.41
2. 1.67
3. 2.69
4. 1.99
5. 3.05
6. 2.78
7. 1.6
8. 3.21

Hi there! I need protein stability index for each item below, if you can.
1. IVALSSEEINQYVTQIE [PRE6]
2. ASISLPNHIPSVNPSNK [SWP82]

**Result**
3.1
2.99

Hi there! I need protein stability index for each item below, if you can.
1. FEQFEKFYEEKLWFQLS [RPN9]
2. LYDHWDKYHEQWIKFLL [SSN8]

**Result**
1: 3.08; 2: 3.16

Hi there! I need protein stability index for each item below, if you can.
1. LYQDMAARHRARFRSIH [RPL20A]
2. LEEITQYEHLIKGIREY [YDL116W/NUP84]
3. IPRNSPLSDLKKRSQAK [RPC82]
4. VLIANDVDPIELVVFLP [RPL8A]

**Result**
2.81
2.35
2.65
2.42

Hi there! I need protein stability index for each item below, if you can.
1. FNDSQAIVCYILFELYK [SRP72]
2. ATTGGLFGSKPQGSTTN [YGR119C/NUP57]
3. GLRNQNMVRNNNNNTID [GRR1]
4. SDIVFIHQNAGRLLRAM [BRR2]

**Result**
[1.95, 3.34, 2.75, 1.73]

###

- METHOD DESCRIPTION: protein stability index of a GFP-peptide fusion (yeast GPS) (PSI 1-4); higher = more stable; sorted into four equal gates, so the index is relative within each strain
- SETUP CONDITIONS: pdr5∆
Would you kindly list protein stability index for each of these sequences?
Give bare numbers.

LELVNTPLTENILIASL [YCG1]    1.62
ESKSDDNSATSYYELET [RRI1]    3.24

Hi there! I need protein stability index for each item below, if you can.
1. IGNLITRQFEGRSNEIV [PRP8]
2. SIKEHSTTMDGANDLGF [MED1]
3. LEEKLYQMQSNYESVFT [YIL149C/MLP2]
4. ITIQLTRDVEPENLQVT [BRR2]
5. CRRMILTHVDLIEKFLR [RPB10]
6. DTVSWFKQKYDADVLDK [RPL11A]
7. IPGGPKFEPLYPREEEE [PRP8]
8. TPLQSQLNLNNLTPANI [PGD1]

**Result**
3.29
2.8
1.71
3.04
1.46
1.74
2.78
3.11

###

- METHOD DESCRIPTION: protein stability index of a GFP-peptide fusion (yeast GPS) (PSI 1-4); higher = more stable; sorted into four equal gates, so the index is relative within each strain
- SETUP CONDITIONS: ubr1∆
Would you kindly list protein stability index for each of these sequences?
Answers are plain numbers.

// below: answered sequences
TTPEINNFIVERVQSDE [SRP68]    2.88
NFLETIASTEKPENKTD [SIR4]    3.13

Hi there! I need protein stability index for each item below, if you can.
1. SAIVNEDGLLEGLDELP [SOH1]
2. RKSYKNQIADLSGKFST [ROX3]
3. KTQCPNYDTCGGESAYF [RPC11]
4. KAEMPPEHLRKIINTHS [PRP8]
5. ASSAAAGAAGAAAGGDA [RPP2B]
6. LASIPDIFITPTPVVTI [SSN2]
7. KKDSKPAFSFGISNGSE [YLR335W/NUP2]

**Result**
1. 2.8
2. 2.92
3. 2.94
4. 1.89
5. 2.87
6. 1.63
7. 3.15

###

- METHOD DESCRIPTION: protein stability index of a GFP-peptide fusion (yeast GPS) (PSI 1-4); higher = more stable; sorted into four equal gates, so the index is relative within each strain
- SETUP CONDITIONS: doa10∆
Would you kindly list protein stability index for each of these sequences?
Answers are plain numbers.

DSIASVLSPDSNIMSDS [GAL11]    2.74

Hi there! I need protein stability index for each item below, if you can.
1. PRVKGFKMNEIVPLHSP [SEC65]
2. LQRASSKMGAPWCVKPE [ITC1]
3. AEDGSRSTKDMIDAVFE [SNF6]
4. FPMKQGVLLPTRIKLLL [RPS6A]
5. HFLQFSELAGDEELEAE [PRP8]
6. PSLEVASEYIETLGLKY [FAS1]
7. ALAQQKLLTPQDMEAAK [GAL11]

**Result**
1: 2.89; 2: 3.14; 3: 3.18; 4: 1.26; 5: 3.33; 6: 3.02; 7: 3.2
